Origin of values: patent US20260234135A1

- Measurement Parameters: 40° C./75% RH/open, 8 weeks
Below is a list of entries, each paired with its recorded HPLC Purity (area %), main peak RRT 1.00 value.
Write down the numeric answer in area % and omit the unit.

[2H]C([2H])(Cc1nc(-c2ccccc2)oc1C)Oc1ccc(C[C@H](OC)C(=O)[O-])c2sccc12.[Na+] [Na salt Form A]: 99.71
[2H]C([2H])(Cc1nc(-c2ccccc2)oc1C)Oc1ccc(C[C@H](OC)C(=O)O)c2sccc12 [free acid Form E]: 99.03
N=C(N)NCCCC(N)C(=O)O.[2H]C([2H])(Cc1nc(-c2ccccc2)oc1C)Oc1ccc(C[C@H](OC)C(=O)O)c2sccc12 [arginine salt Form A]: 99.74

Identify measured HPLC Purity (area %), main peak RRT 1.00 corresponding to [2H]C([2H])(Cc1nc(-c2ccccc2)oc1C)Oc1ccc(C[C@H](OC)C(=O)[O-])c2sccc12.[K+] [K salt Form C] 99.75
